Target: aromatase (Rattus norvegicus, UniProt P22443)
Construct: Immature female Wistar rats weighing 120 g were injected subcutaneously; from tissue; host or cells: whole animal: immature female Wistar rats primed with PMSG (endogenous, mainly ovarian, aromatase by own knowledge)
Sequence (P22443 1-508): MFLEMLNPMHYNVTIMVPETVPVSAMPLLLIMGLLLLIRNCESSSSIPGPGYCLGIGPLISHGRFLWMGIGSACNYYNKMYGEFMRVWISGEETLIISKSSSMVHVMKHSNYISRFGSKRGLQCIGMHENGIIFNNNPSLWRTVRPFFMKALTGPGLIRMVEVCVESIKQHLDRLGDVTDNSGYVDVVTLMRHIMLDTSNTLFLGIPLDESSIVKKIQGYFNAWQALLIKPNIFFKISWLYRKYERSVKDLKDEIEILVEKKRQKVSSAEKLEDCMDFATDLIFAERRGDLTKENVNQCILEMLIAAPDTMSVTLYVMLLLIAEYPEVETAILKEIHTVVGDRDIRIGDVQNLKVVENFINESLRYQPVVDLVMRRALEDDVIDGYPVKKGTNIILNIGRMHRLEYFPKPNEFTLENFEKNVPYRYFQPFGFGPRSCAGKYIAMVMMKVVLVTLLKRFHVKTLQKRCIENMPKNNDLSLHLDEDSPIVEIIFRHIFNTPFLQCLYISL
Assay: In vivo inhibition of the aromatase activity (plasma estradiol in PMSG-injected immature female rats)
Design: species or system Wistar rats
Settings: 1 mg/kg by oral gavage, immature female Wistar rats 90 h after PMSG, plasma estradiol two hours after administration, relative to controls, read-out: Aromatase in vivo % inhibition at 1 mg/kg
Counter-ions that a name gives are not always drawn.
Outcome label depends on inhibition at 1 mg/kg relative to 90%: at/above gives Met, below gives Not met.

Answer whether inhibition at 1 mg/kg of Cn1nnc2ccc(C3CCCc4cncn43)cc21 (stereo not shown) is greater than or equal to 90%.
Met

Item CC(C)(C)n1nnc2ccc(C3CCCc4cncn43)cc21 (stereo not shown) with inhibition at 1 mg/kg of 90% or above?
Met

Could you verify whether the entry CC(C)COn1nnc2ccc(C3CCCc4cncn43)cc21 (stereo not shown) shows inhibition at 1 mg/kg of no less than 90%?
Not met

In plain terms: is recorded inhibition at 1 mg/kg at least 90% for c1cc2nnn(C3CCCCC3)c2cc1C1CCCc2cncn21 (stereo not shown) ?
Met

API: above_or_equal(metric=inhibition at 1 mg/kg, cutoff=90%) for item CCn1nnc2ccc(C3CCCc4cncn43)cc21 (stereo not shown) [Compound 26, monohydrochloride]
Met

Could you verify whether the entry C#CCOn1nnc2ccc(C3CCCc4cncn43)cc21 (stereo not shown) shows inhibition at 1 mg/kg of no less than 90%?
Not met

Does CCOn1nnc2ccc(C3CCCc4cncn43)cc21 (stereo not shown) have a reported inhibition at 1 mg/kg of at least 90%?
Met

Is the recorded value of inhibition at 1 mg/kg equal to or greater than 90% for this compound? C=C(C)COn1nnc2ccc(C3CCCc4cncn43)cc21 (stereo not shown)
Not met

Confirm if inhibition at 1 mg/kg reported for the compound CC(C)Cn1nnc2ccc(C3CCCc4cncn43)cc21 (stereo not shown) is 90% or above.
Met

Item CCCCCCn1nnc2ccc(C3CCCc4cncn43)cc21 (stereo not shown) with inhibition at 1 mg/kg of 90% or above?
Not met

Does CCCn1nnc2ccc(C3CCCc4cncn43)cc21 (stereo not shown) have a reported inhibition at 1 mg/kg of at least 90%?
Met

Form field: inhibition at 1 mg/kg at least 90%? Entry: CCC(C)On1nnc2ccc(C3CCCc4cncn43)cc21 (stereo not shown)
Not met

Confirm if inhibition at 1 mg/kg reported for the compound C=CCOn1nnc2ccc(C3CCCc4cncn43)cc21 (stereo not shown) is 90% or above.
Met

Exam item: decide whether the reported inhibition at 1 mg/kg for c1cc2nnn(C3CCCC3)c2cc1C1CCCc2cncn21 (stereo not shown) is at least 90%.
Met

Does the compound N#Cc1ccc(COn2nnc3ccc(C4CCCc5cncn54)cc32)cc1 (stereo not shown) have recorded inhibition at 1 mg/kg that is 90% or more?
Met
